Origin of the recorded values: patent US20220227814A1

Hi there, I'd appreciate the recorded EC50 (reporter strain) for every entry that follows.
- systemName: ComD1 receptor (Streptococcus pneumoniae)
- assayComment: cell-based or functional assay
Bridge positions count the residues as written; N and C are the ends. Ends that are not written are not given here.
# output: bare number, implied unit nM

Q. Determine its reported EC50 (reporter strain): EMRLSKFFRDFILQRKK (lactam 6-10) [CSP1-cyc(K6D10)]
A. 258

Q. Supply EC50 (reporter strain) value. Item: EMRLSKFFRDFILQRKK [CSP1 (competence stimulating peptide 1)]
A. 10.3

Q. Return reported EC50 (reporter strain). Input binder: EMRLSXFFRDFILQRKK (Orn (ornithine) at position 6; side chain-to-side chain lactam between Orn6 and Asp10) [CSP1-cyc(Orn6D10)]
A. 193

Q. Return EC50 (reporter strain) (reported value) for this binder: EMRLSXFFREFILQRKK (Dap at position 6; side chain-to-side chain lactam between Dap6 and Glu10) [CSP1-cyc(Dap6E10)]
A. 14.6

Q. Give the value of EC50 (reporter strain) reported for the following: EMRLSKFFREFILQRKK (lactam 6-10) [CSP1-cyc(K6E10)]
A. 350

Q. Quote EC50 (reporter strain) reported for EMRLSXFFRDFILQRKK (Dap at position 6; side chain-to-side chain lactam between Dap6 and Asp10) [CSP1-cyc(Dap6D10)] please.
A. 435

Q. Indicate its recorded EC50 (reporter strain); the binder in question is EMRLSXFFREFILQRKK (Dab at position 6; side chain-to-side chain lactam between Dab6 and Glu10) [CSP1-cyc(Dab6E10)]
A. 12.2

Q. Indicate its recorded EC50 (reporter strain); the binder in question is EMRLSXFFRDFILQRKK (Dab at position 6; side chain-to-side chain lactam between Dab6 and Asp10) [CSP1-cyc(Dab6D10)]
A. 59.5

Q. Write down EC50 (reporter strain) measured for item EMRLSXFFREFILQRKK (Orn (ornithine) at position 6; side chain-to-side chain lactam between Orn6 and Glu10) [CSP1-cyc(Orn6E10)]
A. 422

Q. For the binder EMRLSKFFRKFILDRKK (lactam 10-14) [CSP1-cyc(K10D14)] , give its measured EC50 (reporter strain) value.
A. 257

Q. For EMRISRIILDFLFLRKK [CSP2 (competence stimulating peptide 2)] , write its EC50 (reporter strain).
A. 1650
